Tested on: U2OS
Experiment: Incucyte cell viability with U2OS; also: unitless GR value; below 1 slowed growth and below 0 cell loss
Assay type: toxicity, cell-based
Settings: human, 18 h, 10 µM, compound concentration 10 uM, replicate number 2, timepoint 18 hours
observation-type: Growth Rate
Number only, no unit.

- compound: "CN1[C@@H]2CC[C@H]1C[C@@H](OC(=O)C(CO)c1ccccc1)C2 (some centres not stated)"
  subject-of-test: "U2OS"
  Growth Rate: 0.95
- compound: "Cc1cc(OCCCS(C)(=O)=O)cc(C)c1-c1cccc(COc2ccc3c(c2)OC[C@H]3CC(=O)O)c1"
  subject-of-test: "U2OS"
  Growth Rate: 0.9
- compound: "CS(=O)(=O)c1ccc(C(=O)Nc2ccc(Cl)c(-c3ccccn3)c2)c(Cl)c1"
  subject-of-test: "U2OS"
  Growth Rate: 0.84
- compound: "COc1cc2c(Oc3ccc(NC(=O)C4(C(=O)Nc5ccc(F)cc5)CC4)cc3F)ccnc2cc1OCCCN1CCOCC1"
  subject-of-test: "U2OS"
  Growth Rate: 0.01
- compound: "O=C1COc2nccc(-c3ccccc3F)c2CN1Cc1cc(C(F)(F)F)cc(C(F)(F)F)c1"
  subject-of-test: "U2OS"
  Growth Rate: 0.94

## Input Checklist item: Growth Rate tested on U2OS, entry COc1ccc(CN(CCN(C)C)c2ccccn2)cc1 , value?
## Output 0.91

## Input Checklist item: Growth Rate tested on U2OS, entry CN(C)[C@H]1CN(C2CCc3cccc(F)c32)C[C@@H]1c1ccc(N2CCN(S(C)(=O)=O)CC2)cc1 (some centres not stated) , value?
## Output 0.9

## Input Checklist item: Growth Rate tested on U2OS, entry CN(C)CCN(Cc1ccc(-c2ccc(CNCCc3ccccc3)cc2)cc1)C(=O)CCC1CCCC1.Cl.Cl , value?
## Output -0.64

## Input Checklist item: Growth Rate tested on U2OS, entry COc1cccc2c1c(NS(=O)(=O)c1ccc(Cl)s1)nn2Cc1cccc(CNC(=O)C(C)(C)O)c1 , value?
## Output 0.83

## Input Checklist item: Growth Rate tested on U2OS, entry COC(=O)[C@H]1[C@H]2C[C@H]3c4[nH]c5ccccc5c4CCN3C[C@H]2CC[C@@H]1O.Cl [RAUWOLSCINE HYDROCHLORIDE] , value?
## Output 0.88

## Input Checklist item: Growth Rate tested on U2OS, entry Nc1nc(-c2ccco2)c2cnn(Cc3ccccc3F)c2n1 , value?
## Output 0.48

## Input Checklist item: Growth Rate tested on U2OS, entry Cc1nc2ccc(Oc3ccc(F)cc3)cc2c(=O)n1C[C@H]1CCCN(C(C)C)C1.Cl , value?
## Output 0.96

## Input Checklist item: Growth Rate tested on U2OS, entry O=S(=O)(c1ccccc1)N(CC(F)(F)F)c1ccc(C(O)(C(F)(F)F)C(F)(F)F)cc1 , value?
## Output 0.76

## Input Checklist item: Growth Rate tested on U2OS, entry O=C(NCCO)c1cccc(-c2cc(Nc3ccc(OC(F)(F)F)cc3)ncn2)c1 , value?
## Output 0.99

## Input Checklist item: Growth Rate tested on U2OS, entry C[C@@H](O[C@H]1OCCN(Cc2n[nH]c(=O)[nH]2)[C@H]1c1ccc(F)cc1)c1cc(C(F)(F)F)cc(C(F)(F)F)c1 [APREPITANT] , value?
## Output 0.69

## Input Checklist item: Growth Rate tested on U2OS, entry CNC(=O)[C@H]1O[C@@H](n2cnc3c(NCc4cccc(I)c4)ncnc32)[C@H](O)[C@@H]1O , value?
## Output 0.76

## Input Checklist item: Growth Rate tested on U2OS, entry Cc1cc(Nc2ncc(Cl)c(Nc3ccccc3S(=O)(=O)C(C)C)n2)c(OC(C)C)cc1C1CCNCC1 , value?
## Output -0.52

## Input Checklist item: Growth Rate tested on U2OS, entry CC[C@H]1CN2CCc3cc(OC)c(OC)cc3[C@@H]2C[C@@H]1C[C@H]1NCCc2cc(OC)c(OC)cc21 , value?
## Output 0.25

## Input Checklist item: Growth Rate tested on U2OS, entry Cc1cc(C)cc(C(=O)NOCCCCCC(=O)NO)c1 , value?
## Output 0.4

## Input Checklist item: Growth Rate tested on U2OS, entry CC(C)C[C@H](CO)Nc1nc(S[C@@H](C)c2ccccc2)nc2nc(N)sc12 , value?
## Output 0.7

## Input Checklist item: Growth Rate tested on U2OS, entry N#Cc1c(Oc2cccc(OS(=O)(=O)CCCC(F)(F)F)c2)cccc1C(F)(F)F , value?
## Output 0.81

## Input Checklist item: Growth Rate tested on U2OS, entry Cn1cnc(-c2cc3nccc(Oc4ccc(NC(=S)NC(=O)Cc5ccccc5)cc4F)c3s2)c1 , value?
## Output 0.93

## Input Checklist item: Growth Rate tested on U2OS, entry CC(C)C[C@@H](NC(=O)[C@H](Cc1ccccc1)NC(=O)CNC(=O)[C@@H](C)NC(=O)[C@@H](N)Cc1ccc(O)cc1)C(=O)O , value?
## Output 0.98

## Input Checklist item: Growth Rate tested on U2OS, entry CC(=O)O[C@H]1C(=O)[C@@]2(C)[C@H]([C@H](OC(=O)c3ccccc3)[C@]3(O)C[C@H](OC(=O)[C@H](O)[C@@H](NC(=O)c4ccccc4)c4ccccc4)C(C)=C1C3(C)C)[C@]1(OC(C)=O)CO[C@@H]1C[C@@H]2O , value?
## Output -0.14

## Input Checklist item: Growth Rate tested on U2OS, entry CCCC(CCC)C(=O)O , value?
## Output 0.81

---

Test system: HEK-293T
Test: Incucyte cell viability with HEK293T; also: unitless GR value; below 1 slowed growth and below 0 cell loss
Assay type: toxicity, cell-based
Conditions: human, 12 h, 10 µM, compound concentration 10 uM, replicate number 2, timepoint 12 hours
observation-type: Growth Rate

The cases that follow already have their Growth Rate on record.
- compound: "CCCCCCCCCCCCC/C=C/[C@@H](O)[C@@H](N)COP(=O)([O-])OCC[N+](C)(C)C [SPHINGOSYLPHOSPHORYLCHLOLINE]"
  Growth Rate: -0.08
- compound: "O=C1NC(Nc2ccccc2)=N/C1=C\\c1ccc2c(c1)OCO2"
  Growth Rate: 0.51
- compound: "COc1ccc2nc3ccc(OC)cc3c(SCCCN)c2c1.Cl"
  Growth Rate: 0.33
- compound: "CN1[C@@H]2CC[C@H]1C[C@@H](OC(=O)C(CO)c1ccccc1)C2 (some centres undefined) [ATROPINE]"
  Growth Rate: 0.53
- compound: "C[C@@H]1CC(=O)Nc2cccc(-c3ccc4c(c3)c(-c3cnn(C)c3)nn4C)c2N1"
  Growth Rate: 0.42

## Input Any idea what its Growth Rate is? The compound is CN(c1ncccc1CNc1ccnc(-c2nc3c(F)c(Cl)ccc3[nH]2)n1)S(C)(=O)=O
## Output 0.72

---

Tested on: U2OS
Assay: Incucyte cell viability with U2OS; also: unitless GR value; below 1 slowed growth and below 0 cell loss
Type: toxicity, cell-based
Conditions: human, 0 h, 10 µM, compound concentration 10 uM, replicate number 2, timepoint 0 hours
Where a SMILES comes first, the peptide text is derived from it. Bridges are numbered along the chain shown (N, C = ends). [ ]: non-standard residue; d: D form. Orn = NCCC[C@H](N)C(=O)O; Mpa = O=C(O)CCS
Binarize Growth Rate at 0.07; below is label 1, at or above is label 0.

Here are 3 molecules together with their reported answers.
- molecule: "Cc1nc[nH]c1CCN.Cl"
  label-value: "label 1"
- molecule: "N#Cc1cc2c(OCC(O)CN3CCN(C(c4ccccc4)c4ccccc4)CC3)cccc2[nH]1 (racemic)"
  label-value: "label 1"
- molecule: "CC(C)Oc1ccc(-c2c[nH]cc2CN(C)CCO)cc1"
  label-value: "label 0"

## Input Does this molecule meet the criterion Growth Rate < 0.07? N#Cc1c(Oc2cccc(OS(=O)(=O)CCCC(F)(F)F)c2)cccc1C(F)(F)F
## Output label 0

## Input Does this molecule meet the criterion Growth Rate < 0.07? Oc1c(CN2CCN(c3ccccn3)CC2)cc(Cl)c2cccnc12
## Output label 1

## Input Does this molecule meet the criterion Growth Rate < 0.07? O=C(N[C@@H]1CC[C@@H](c2cccc(F)c2F)CN(CC(F)(F)F)C1=O)N1CCC(n2c(=O)[nH]c3ncccc32)CC1
## Output label 1

## Input Does this molecule meet the criterion Growth Rate < 0.07? Cl.Clc1cccc(Cl)c1NC1=NCCN1 [CLONIDINE HYDROCHLORIDE]
## Output label 0

## Input Does this molecule meet the criterion Growth Rate < 0.07? O=c1ccn([C@@H]2O[C@H](COP(=O)([O-])OP(=O)([O-])OP(=O)([O-])O)[C@@H](O)[C@H]2O)c(=O)[nH]1.[Na+].[Na+].[Na+]
## Output label 0

## Input Does this molecule meet the criterion Growth Rate < 0.07? COc1cc(/C=C/C(=O)NCCn2c(C)cc3ccccc32)cc(OC)c1OC
## Output label 1

## Input Does this molecule meet the criterion Growth Rate < 0.07? CC(C)(C)c1ccc(CSc2cnn(C(C)(C)C)c(=O)c2Cl)cc1
## Output label 1

## Input Does this molecule meet the criterion Growth Rate < 0.07? Cl.Cl.NCCc1c[nH]cn1 [HISTAMINE DIHYDROCHLORIDE]
## Output label 0

## Input Does this molecule meet the criterion Growth Rate < 0.07? CC(C)N(CCCCOCC(=O)NS(C)(=O)=O)c1cnc(-c2ccccc2)c(-c2ccccc2)n1
## Output label 1

## Input Does this molecule meet the criterion Growth Rate < 0.07? COc1ccc2cc(S(=O)(=O)N[C@H](CC(=O)N[C@H](Cc3ccc(CN4[C@H](C)CCC[C@@H]4C)cc3)C(=O)N(C)C(C)C)c3ccc4c(c3)OCO4)ccc2c1.Cl
## Output label 1

## Input Does this molecule meet the criterion Growth Rate < 0.07? O=C1[C@H](Cc2ccc(O)cc2)N2C(=O)CCN(C(=O)NCc3ccccc3)[C@H]2CN1Cc1cccc2ccccc12
## Output label 0

## Input Does this molecule meet the criterion Growth Rate < 0.07? CCCCCCCCc1ccc(CC[C@](N)(CO)COP(=O)(O)O)cc1
## Output label 1

## Input Does this molecule meet the criterion Growth Rate < 0.07? Cc1ccc2c(c1CCC(=O)O)CC[C@@H](NS(=O)(=O)c1ccc(Cl)cc1)C2
## Output label 1

## Input Does this molecule meet the criterion Growth Rate < 0.07? COc1cc2nc(N3CCN(C(=O)COc4c(OC)cccc4C(C)C)CC3)nc(N)c2cc1OC.Cl.Cl
## Output label 1

## Input Does this molecule meet the criterion Growth Rate < 0.07? O=C(O)c1ccccc1S(=O)(=O)NCCCCN1C(=O)c2cccc3cccc(c23)C1=O
## Output label 1

## Input Does this molecule meet the criterion Growth Rate < 0.07? CCOc1ccc(C[C@H]2NC(=O)CCSSC[C@@H](C(=O)N3CCC[C@H]3C(=O)N[C@@H](CCCN)C(=O)NCC(N)=O)NC(=O)[C@H](CC(N)=O)NC(=O)[C@H]([C@@H](C)O)NC(=O)[C@H]([C@@H](C)CC)NC2=O)cc1 [ATOSIBAN] ([Mpa][dY](Et)ITNCP[Orn]G-NH2; disulfide 1-6)
## Output label 1

## Input Does this molecule meet the criterion Growth Rate < 0.07? CCN(Cc1ccncc1)C(=O)C(CO)c1ccccc1 (stereo unspecified) [TROPICAMIDE]
## Output label 0

## Input Does this molecule meet the criterion Growth Rate < 0.07? CN(c1ncccc1CNc1ccnc(-c2cc3cc(Cl)ccc3[nH]2)n1)S(C)(=O)=O
## Output label 0

## Input Does this molecule meet the criterion Growth Rate < 0.07? Cc1cc(CN)cc(C)c1-c1ncn(C)c1-c1cncn1C
## Output label 0

## Input Does this molecule meet the criterion Growth Rate < 0.07? C=CCNc1ncnc2ccc(Br)cc12
## Output label 0
